# assay system: Hexose transporter 1 (Plasmodium falciparum)
# test description: ST_JUDE_LEISH: Cytotoxicity at 2uM final concentration against transgenic Leishmania Mexicana promastigotes LmPfHT that are glucose transport deficient and complemented with the Plasmodium falciparum hexose transporter. Activity is measured by DNA content using SYBR green in vitro
# Format: functional
measured property: inhibition (%)

INSERT INTO assay_data (compound, measured_property, meas_value) VALUES
  ('Cc1cc(N(C)C2CCN(CC3CCCCC3)C2)nc(Nc2ccc(Br)cc2)n1 (stereo not given)', 'inhibition', 4.85),
  ('O=C(NC1CC1)c1ccc(N2CCN(Cc3ccc(Cl)cc3)CC2)nc1', 'inhibition', -0.23),
  ('CCOC(=O)CCCCOc1c(OC)cc(Cc2cnc(N)nc2N)cc1OC', 'inhibition', 6.88),
  ('COc1ccc(C=Cc2cc(=N)c3ccccc3[nH]2)cc1Br', 'inhibition', 2.29),
  ('Cc1ccc(-c2cc(C(=O)Nc3ccc(S(=O)(=O)N4CCCC(C)C4)cc3)[nH]n2)c(O)c1 (stereo not given)', 'inhibition', -1.98),
  ('O=C(Nc1ccccc1)c1nn(CCCN2CCC(N3CCCC3)CC2)cc1-c1ccc(Cl)c(Cl)c1', 'inhibition', 0.39),
  ('CS(=O)(=O)c1cccc(-c2cnc(N)c3cc(-c4ccc5c(c4)OCO5)ccc23)c1', 'inhibition', 8.33),
  ('O=C(NC1CCN(Cc2ccccc2)CC1)c1cccc(Nc2nc(-c3ccccc3)cs2)c1', 'inhibition', 8.88),
  ('CCCCCCCCCn1c(NCc2cc(Cl)ccc2O)nc2ccccc21', 'inhibition', 1.33),
  ('O=C(NCc1cccc(F)c1)Nc1ccc(-c2ccc(-c3nc4cc(C(F)(F)F)ccc4[nH]3)cc2)cc1', 'inhibition', -0.45),
  ('CN1CCCC(OC(=O)c2ccccc2)C1 (stereo not given)', 'inhibition', 3.71),
  ('C=C[C@H]1CN(CCCCCCC)CC[C@H]1CCN(C)c1ccnc2ccc(OC)cc12', 'inhibition', 2.44),
  ('CCOC(=O)c1nc(-c2cc(Cl)nc(Cl)c2)[nH]c1NC(=S)NCc1ccc(NS(C)(=O)=O)cc1', 'inhibition', -1.98),
  ('O=C(Nc1ccccc1F)NC1CCN(c2ccnc(Nc3ccc(F)cc3)n2)C1 (stereo not given)', 'inhibition', 0.72),
  ('Oc1ccc(CCNCCCCCCNCCc2ccc(Br)cc2)cc1O', 'inhibition', 2.35),
  ('CN(C)CCCNc1ccnc2cc(Cl)ccc12', 'inhibition', 0.62),
  ('Cc1cc(Br)c(OCCCON2C(=N)N=C(N)NC2(C)C)c(Br)c1', 'inhibition', 4.88),
  ('Cc1nnsc1C(=O)Nc1cccc(-c2ccc(-c3nc4cc(F)ccc4[nH]3)cc2)c1', 'inhibition', 3.3),
  ('O=C(NC1CCN(Cc2ccccc2)CC1)c1ccc(-c2nc3cc(Cl)c(F)cc3[nH]2)cc1', 'inhibition', 0.15),
  ('COc1ccc(C(=O)N[C@@H](CC(C)C)C(=O)N[C@H](/C=N/NC(=O)c2ccccc2)CCc2ccccc2)cc1OCCN1CCOCC1', 'inhibition', 3.34);
